experimentNotes: Saturation solubility in excipients
Format: physicochemical
measurementSetup: 15% w/v propylene glycol in purified water, 25 °C, aqueous with cosolvent or surfactant or cyclodextrin, thermodynamic from solid, 15% w/v propylene glycol in purified water; read-out: saturation solubility at 25° C. (free base)
parameterMeasured: solubility (mg/mL)
Lab book: enter the figure in mg/mL, no units written.

For the molecule shown here, `N=C(N)NCCCCC(=O)Nc1cc(C(F)(F)F)cc(NC(=O)c2cc(C(=O)Nc3cc(C(F)(F)F)cc(NC(=O)CCCCNC(=N)N)c3O[C@H]3CCNC3)ncn2)c1O[C@H]1CCNC1` , give the reported solubility.
64.9
